Below is a list of entries, each paired with its recorded normalized growth value.
Assay: chemical genetic growth profiling, strain panel (AID 1159580);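 note: tested at 20 µM; growth read once vehicle control cultures reached saturation at 30 °C; 1 = growth at the plate median or of vehicle wells; lower values mean less growth of the strain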
Conditions: S. cerevisiae deletion strains, growth OD, locus YOL012C, strain htz1
Hit rate of the full screen: of about 5,500 compounds, about 2,000 (36%) were called active. Roughly 18% stayed inconclusive and do not appear here. Some of the results follow.
measured-parameter: normalized growth

[
  {
    "molecule": "C#C[C@]1(OC(C)=O)CCC2C3CCC4=CC(=O)CC[C@@H]4C3CC[C@@]21C (stereo not given in full)",
    "result": 1
  },
  {
    "molecule": "COc1c(CC(=O)c2cc3c(cc2O)OC(C)(C)C(O)C3)ccc2c1C=CC(C)(C)O2 (stereo not given)",
    "result": 1.64
  },
  {
    "molecule": "N[C@H](C(=O)O)[C@@H]1CC(Cl)=NO1",
    "result": 0.224
  },
  {
    "molecule": "O=C1C(O)=C(O)C(=O)C(O)=C1O",
    "result": 0.781
  },
  {
    "molecule": "CNC(=O)O/N=C\\C(C)(C)SC",
    "result": 0.971
  }
]
